Assignment: determine reported melting point for the given compounds.

IN: Name the recorded melting point of the compound listed here: N#CC1=Cc2ccccc2C(N2CCN(N)CC2)c2ccccc21 (stereo not given)
OUT: 137 to 146 °C

IN: Name the recorded melting point of the compound listed here: `COC(=O)C1=Cc2cc(Br)cnc2N(CC(C)C)CCC1`
OUT: 79.5 to 80.5 °C

IN: Name the recorded melting point of the compound listed here: `CCOC(=O)c1cn(-c2nonc2C)c2nc(Cl)c(F)cc2c1=O`
OUT: 211 to 216 °C

IN: Name the recorded melting point of the compound listed here: COc1ccc(C(NCC(C)c2ccccc2)c2cccc(Nc3c(N)c(=O)c3=O)c2)cc1 (stereo not given)
OUT: 192 to 194 °C

IN: Name the recorded melting point of the compound listed here: `CC(=O)NC[C@H]1CN(c2ccc3c(c2)CCOC3)C(=O)O1`
OUT: 142 to 145 °C

IN: Name the recorded melting point of the compound listed here: `CN(C(=O)Cc1ccc2oc(=O)[nH]c2c1)[C@H](CN1CC[C@H](O)C1)c1ccccc1`
OUT: 207 to 208 °C

IN: Name the recorded melting point of the compound listed here: `CCc1nc2c(cnn2CC)c(NC2CCOCC2)c1CNC(=O)c1cc(C)cc(C(=O)NCc2ccc(C)c(-c3cccc(C=O)c3)c2)c1`
OUT: 117 to 120 °C

IN: Name the recorded melting point of the compound listed here: `COC(=O)c1ccccc1C(=O)n1nc(O)ccc1=O`
OUT: 144 to 145 °C

IN: Name the recorded melting point of the compound listed here: `Oc1ccc(CCc2ccc(O)cc2)cc1`
OUT: 199 to 200 °C

IN: Name the recorded melting point of the compound listed here: Cc1cc2c(c(C)c1Br)C(c1ccc(C(C)C)cc1)CS2 (stereo not given)
OUT: 98 to 100 °C

IN: Name the recorded melting point of the compound listed here: `CC(C)(CO)CCCCC(CCCCC(C)(C)CO)C(C)(C)O`
OUT: 72 to 74 °C

IN: Name the recorded melting point of the compound listed here: CC1C(N(C)C)CCN2c3ccccc3Cc3ccccc3C12 (stereo not given)
OUT: 174 to 176 °C

IN: Name the recorded melting point of the compound listed here: `O=CC=CC(=C(c1ccc(F)cc1)c1ccc(F)cc1)n1cnnn1`
OUT: 152 to 154 °C

IN: Name the recorded melting point of the compound listed here: COc1ccccc1C1C(C(=O)c2ccc(C)cc2)=C(O)C(=O)N1c1ccc(C)nn1 (stereo not given)
OUT: 211 to 213 °C

IN: Name the recorded melting point of the compound listed here: CC(=O)C(=Cc1cccc([N+](=O)[O-])c1)C(=O)OC(C)CCl (stereo not given)
OUT: 95 to 96 °C

IN: Name the recorded melting point of the compound listed here: CN1CCC23c4c5ccc(OCCCN)c4OC2C(O)C=CC3C1C5 (stereo not given)
OUT: 132 to 134 °C

IN: Name the recorded melting point of the compound listed here: OC(CCCl)COc1ccc(Cl)c(Cl)c1 (stereo not given)
OUT: 82 to 84 °C

IN: Name the recorded melting point of the compound listed here: Cc1nc2ccc3c(c2o1)OC(CN1CCC2(CC1)C(=O)NCN2c1ccccc1)CO3 (stereo not given)
OUT: 240 °C

IN: Name the recorded melting point of the compound listed here: O=C1c2ccccc2C(=O)N1CC1CC(=O)N(Cc2ccccc2)c2ccccc2N1 (stereo not given)
OUT: 127 to 130 °C

IN: Name the recorded melting point of the compound listed here: CCOC(=O)C1CCC(n2nc(-c3c(-c4ccccc4)nn4ccccc34)ccc2=O)CC1 (stereo not given)
OUT: 156 to 160 °C

Value source: a melting point compilation (Tetko et al.; mined from patent text by program, amines drawn as free bases though some values may be those of a salt)
